tested on: human blood; assay: In vitro anticoagulant effect on human blood (APTT, CT2); format: biochemical; settings: Table 2; concentration of the compound corresponding to 2 times the APTT of the blank control; human plasma
readout name: CT2 (compound concentration doubling APTT) (µM)
# output: bare number, implied unit µM

Could you share what CT2 (compound concentration doubling APTT) was measured for [2H]C([2H])([2H])C(=O)c1ccc(Cl)cc1-c1cc(=O)n([C@@H](Cc2ccccc2)C(=O)Nc2ccc(C(=O)O)cc2)cc1OC , tested on human blood? 2.6

Could you share what CT2 (compound concentration doubling APTT) was measured for COc1cn(C(Cc2ccn(C3CC3)n2)C(=O)Nc2ccc3nn(C)cc3c2)c(=O)cc1-c1cc(Cl)ccc1C(C)=O (stereo not shown) , tested on human blood? 5.4

Could you share what CT2 (compound concentration doubling APTT) was measured for CNC(=O)c1ccc(NC(=O)[C@H](Cc2ccccc2)n2cc(OC)c(-c3cc(Cl)ccc3C(C)=O)cc2=O)cc1 , tested on human blood? 6.0

Could you share what CT2 (compound concentration doubling APTT) was measured for CCC(=O)c1ccc(Cl)cc1-c1cc(=O)n(C(CC2CCCCO2)C(=O)Nc2ccc(C(=O)O)cc2)cc1OC (stereo not shown) , tested on human blood? 7.2

Could you share what CT2 (compound concentration doubling APTT) was measured for COc1cn([C@@H](Cc2cnn(C)c2)C(=O)Nc2ccc(C(=O)O)cc2)c(=O)cc1-c1cc(Cl)ccc1C(C)=O , tested on human blood? 6.9

Could you share what CT2 (compound concentration doubling APTT) was measured for COc1cn(C(Cc2ccn(C3CC3)n2)C(=O)Nc2ccc3ncncc3c2)c(=O)cc1-c1cc(Cl)ccc1C(C)=O (stereo not shown) , tested on human blood? 7.6
